- Tested on: THP-1
- protocol: inhibitory potency against human Tumor necrosis factor, alpha production in THP-1cells
- Assay type: functional, cell-based
pIC50: −log10 of the molar value.
Classify by measured pIC50: true if it is equal to or exceeds 7, false if it is smaller.

compound: O=c1c(-c2ccc(F)cc2)c(-c2ccnc(NCc3ccccc3F)n2)n2n1CC1(C2)OCCO1
labelValue: true
//
compound: O=c1c(-c2ccc(F)cc2)c(-c2ccnc(NCc3ccncc3)n2)n2n1CC1(C2)OCCO1
labelValue: false
//
compound: O=c1c(-c2ccc(F)cc2)c(-c2ccnc(Oc3ccccc3)n2)n2n1CC1(C2)OCCO1
labelValue: true
//
compound: Cc1cccc(CNc2nccc(-c3c(-c4ccc(F)cc4)c(=O)n4n3CC3(C4)OCCO3)n2)c1
labelValue: true
//
compound: O=c1c(-c2ccc(F)cc2)c(-c2ccnc(NCc3ccc(F)cc3)n2)n2n1CC1(C2)OCCO1
labelValue: false
//
compound: CN(C)C1Cn2c(-c3ccnc(Oc4ccccc4)n3)c(-c3ccc(F)cc3)c(=O)n2C1 (centres undefined)
labelValue: false
//
compound: O=c1c(-c2ccc(F)cc2)c(-c2ccnc(Oc3ccccc3)n2)n2n1CC(N1CCCCC1)C2 (centres undefined)
labelValue: false
//
compound: O=c1c(-c2ccc(F)cc2)c(-c2ccnc(NCc3ccccc3C(F)(F)F)n2)n2n1CC1(C2)OCCO1
labelValue: true

Measured values drawn from ChEMBL document CHEMBL1137162 for this set.
